meta.source: a melting point compilation (Tetko et al.; mined from patent text by program, amines drawn as free bases though some values may be those of a salt)

Starred links: 1 amine or outer side, 2 acyl side, 3 side chain; linkers in the order of their positions; H or OH if unused. Residues, ends and D or L forms follow the SMILES beside them. *: point of attachment. Glutaryl = O=C(CCCC(=O)[*:2])[*:1]; NHPr = CCCN*
Hi there, I'd appreciate the recorded melting point for every entry that follows.

GET /value?item= c1ccc(COc2ncnc3nc[nH]c23)cc1 &field=melting point returns 175 to 177 °C

GET /value?item= Cc1ccc2c(c1)-n1ccc3c1=C(CCC=3)c1nccn1-2 &field=melting point returns 175 °C

GET /value?item= CCCNC(=O)C1CCCN1C(=O)C(C)NC(=O)C(C)NC(=O)CCCC(=O)O (stereo not drawn) (Glutaryl-Ala-Ala-Pro-NHPr; configuration not given here) &field=melting point returns 131 to 134 °C

GET /value?item= CCOC(=O)CNC(=O)N(CC(=O)OCC)Cc1ccccc1 &field=melting point returns 64 to 65 °C

GET /value?item= Fc1cc(Cl)c(OC(F)F)cc1-n1nc2c(c1Cl)CCCC2 &field=melting point returns 83 to 85 °C

====

experimental_endpoint: melting point

GET /value?item= CC(C)(C)c1cc(SC(Sc2cc(C(C)(C)C)c(O)c(C(C)(C)C)c2)Sc2cc(C(C)(C)C)c(O)c(C(C)(C)C)c2)cc(C(C)(C)C)c1O &field=melting point returns 217 to 220 °C

GET /value?item= COC1Cc2ccc(F)cc2/C1=C/C(N)=O (centres undefined) &field=melting point returns 128 to 130 °C

GET /value?item= CNC(=O)c1cnn2c(C(=O)N3CCNCC3)c(Cc3cccc(F)c3C)c(-c3ccccc3)c2c1 &field=melting point returns 208 to 210 °C

GET /value?item= CC1(C)CCC(C)(C)c2cc(CCCSN3C=CC=NC3)c(/C=C/c3ccc(C(=O)O)cc3)cc21 &field=melting point returns 177 to 178 °C

====

Hi there, I'd appreciate the recorded melting point for every entry that follows.

GET /value?item= CC1=Nc2ccccc2CC(c2ccncc2)N1C (stereo not given) &field=melting point returns 159 to 161 °C

GET /value?item= Cc1ccc(F)cc1C(=O)N1Cc2cccnc2Nc2ccccc21 &field=melting point returns 138 to 140 °C

GET /value?item= O=CNNc1cccc([N+](=O)[O-])c1 &field=melting point returns 168 to 169 °C

GET /value?item= NS(=O)(=O)c1ccc(-n2nc(C(F)(F)F)cc2-c2nc3ccccc3s2)cc1 &field=melting point returns 254 to 256 °C

GET /value?item= Cc1ccc(C(=O)C2=C(O)C(=O)N(c3ccc(C)nn3)C2c2ccc(OCCN(C)C)cc2)cc1 (stereo not given) &field=melting point returns 263 to 266 °C

====

Hi there, I'd appreciate the recorded melting point for every entry that follows.

GET /value?item= COc1ccc(OC)c(Cc2nc3ccc(C)cc3c(=O)[nH]2)c1 &field=melting point returns 188 to 189 °C

GET /value?item= COc1cc(OC)c2c(=O)[nH]c(-c3cc(C)c(OCCN4CCCCCC4)c(C)c3)nc2c1 &field=melting point returns 198 to 199 °C

GET /value?item= O=C(O)CN1C(=O)C(=Cc2ccc(OCc3ccc(OC(F)(F)F)cc3)c(OCc3ccccc3)c2)SC1=S &field=melting point returns 195 to 199 °C

GET /value?item= C=Cc1ccc(-n2cc(C)c(=O)[nH]c2=O)cc1 &field=melting point returns 185 °C

GET /value?item= COc1cc2c(cc1-c1cc(F)ccc1F)NC(=O)CC(c1cccc(C#N)c1)=N2 &field=melting point returns 251 °C

GET /value?item= O=C(O)CCCc1ccc(-c2ccc(F)cc2)cc1 &field=melting point returns 118 to 120 °C

GET /value?item= O=C(c1ccc(-c2ccccc2)cc1)c1cccnc1Cl &field=melting point returns 128 to 132 °C

GET /value?item= O=C(/C=C/C=C/c1ccccc1)NCCCCC(=O)NO &field=melting point returns 168 to 170 °C

GET /value?item= CC(=O)Nc1c(C(=O)c2cccc(C)n2)[nH]c2cc(Cl)ccc12 &field=melting point returns 195 to 196 °C

GET /value?item= CC(Br)C(=O)c1ccc2oc(=O)[nH]c2c1 (stereo unspecified) &field=melting point returns 191 to 193 °C

GET /value?item= COc1ccc(C(=O)Nc2ccccc2)cc1NCc1ccc(C)c(C)c1 &field=melting point returns 163 to 164 °C

GET /value?item= CCCCOC(=O)C(N)C=CCP(=O)(O)O (stereo unspecified) &field=melting point returns 160 to 161 °C

GET /value?item= CC(C)(C)c1ccc(-c2ccc(COc3cccc4cc(NS(=O)(=O)C(F)(F)F)ccc34)c(F)c2)cc1 &field=melting point returns 162 to 164 °C

GET /value?item= CC(c1oc2ccccc2c(=O)c1-c1cccc(F)c1)n1nc(-c2csc3ccccc23)c2c(N)ncnc21 (stereo unspecified) &field=melting point returns 226 to 229 °C

GET /value?item= Cc1ncc(C#N)c(Nc2ccc3[nH]ccc3c2C)c1I &field=melting point returns 222 to 223 °C

GET /value?item= O=C(O)CCCCCCC1C(=O)CCC1=O &field=melting point returns 131 to 141 °C

GET /value?item= CC1=CC2(C=CC1(C)C(Cl)(Cl)Cl)SCC(C(C)(C)C)CS2 (stereo unspecified) &field=melting point returns 141 to 143 °C

GET /value?item= O=C(CCl)c1scc(Br)c1Br &field=melting point returns 86 to 88 °C

GET /value?item= COc1nc(NC(=O)NS(=O)(=O)c2ccccc2C)nc(N(C)C)n1 &field=melting point returns 194 to 198 °C

GET /value?item= COc1ccc(-c2cc(=O)n(CCc3ccc(OC)c(OC)c3)nc2-c2ccc(OC)cc2)cc1 &field=melting point returns 131 °C

GET /value?item= CCn1c(-c2ccc(OC)c(OC)c2)cc(=Nc2c(C)cc(C)cc2C)n(C)c1=O &field=melting point returns 57 to 61 °C

====

experimental_endpoint: melting point

GET /value?item= N#Cc1ccsc1N=Cc1ccc([N+](=O)[O-])s1 &field=melting point returns 192 to 194 °C

GET /value?item= CCN1c2ncc(CSc3ncnc4[nH]ncc34)cc2C(=O)N(C)c2ccc(Cl)nc21 &field=melting point returns 128 to 130 °C

GET /value?item= O=C1c2ccccc2C(=O)N1CCCOc1ccncc1 &field=melting point returns 81 to 82 °C

GET /value?item= CC(C)(C)c1cccc(S(=O)(=O)n2c(C(F)c3ccc(C(=O)O)cc3)cc3cc(C(F)(F)F)ccc32)c1 (stereo not given) &field=melting point returns 170 °C

GET /value?item= Cc1noc(C)c1-c1cn(Cc2ccccc2)c(=O)c2ncccc12 &field=melting point returns 168 to 170 °C

GET /value?item= CCCCCCC/C=C/C(=O)NC &field=melting point returns 60 to 63 °C

GET /value?item= COC(=O)C#CCCc1c(C)c(OC)c(C)c(C)c1OC &field=melting point returns 71 to 72 °C

GET /value?item= CCOC(=O)c1ccc(OCCCCC(=O)c2ccc(Cl)s2)cc1 &field=melting point returns 87 to 89 °C

GET /value?item= N#CC(CC1CCCCC1)c1ccc(Cl)cc1Cl (stereo not given) &field=melting point returns 58.8 °C

GET /value?item= C[C@@H]1CNc2c(cccc2[N+](=O)[O-])[C@H](C)N1 (relative stereo) &field=melting point returns 62 °C

====

Hi there, I'd appreciate the recorded melting point for every entry that follows.

GET /value?item= C=C[C@@H]1CCC(=O)N1C(=O)[C@@H](C)Sc1cc(C(C)(C)C)c(O)c(C(C)(C)C)c1 &field=melting point returns 105 to 106 °C

GET /value?item= COc1ccc(CNc2nc(-c3ccccc3)c(-c3ccc(=O)n(C)n3)nc2C#N)cc1 &field=melting point returns 166 to 168 °C

GET /value?item= COc1cc(Cn2cnc3cccnc32)ccc1C(=O)N(C1CCCC1)C1CC(C)CC(C)C1 (centres undefined) &field=melting point returns 80 to 82 °C

GET /value?item= Cc1ccc(C(=O)NN2CCOCC2)c(Nc2ccc3[nH]ncc3c2)n1 &field=melting point returns 257 to 260 °C

GET /value?item= O=Cc1c2ccccc2c(C=O)c2c1ccc1ccccc12 &field=melting point returns 197 to 198 °C

GET /value?item= CCOc1ccc2cc(-c3nc(C(C)(C)C)[nH]c3-c3ccncc3)ccc2c1 &field=melting point returns 258 to 259 °C

GET /value?item= Cc1c(C2=CCC(c3ccccc3)(N(C)C)CC2)[nH]c2ccc(C#N)cc12 (centres undefined) &field=melting point returns 180 to 185 °C

GET /value?item= c1ccc2c(c1)Cn1c(cc3ccccc31)CN2 &field=melting point returns 176 to 177 °C

GET /value?item= CC(=O)OCC(C)(C(=O)OC(C)(C)C)C(=O)c1ccccc1 (centres undefined) &field=melting point returns 95 to 97 °C
